run description: qHTS of small molecules that selectively kill Giardia lamblia: Hit Validation.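 Also: viability measured as ATP content by luminescence so killing lowers signal; trophozoites exposed to compounds for 48 h anaerobically at 37 °C; nearly all actives have a fitted effect of over 65% in size.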
condition details: Giardia lamblia trophozoite viability, dose-response; series mostly up to 38.3 µM
Screen size: about 1,300 compounds; about 1,000 (77%) were called active. Inconclusive results (about 7%) are left out. Calls follow the shape of the dose curve; as a rule, active = well fitted inhibition curve with a large enough effect; inconclusive = small, poorly fitted or top-dose-only effect; inactive = no such curve, though single readings can be large or run the other way. The set was probably picked from earlier hits. This is one part of the list.
Parameter call: string, one of yes for active, no for inactive

Check out these entries, answers already filled in.
                                   molecule  label_class
0  O=C(Nc1cccc(S(=O)(=O)N2CCCCC2)c1)c1ccc([N+](=O)[O-])o1          yes
1  Cc1ccc2nsnc2c1NC(=O)c1ccc([N+](=O)[O-])o1          yes
2  Cc1cc(C)cc(Oc2ccc(NC(=O)C3CC=CCC3C(=O)O)cc2)c1 (stereo unspecified)          yes
3  CC(=O)Nc1ccc(/C=C/c2noc(-c3ccccc3O)n2)cc1           no
4  COc1ccc(CNC(=O)CN2C(=O)COc3ccc(S(=O)(=O)N4CCCCC4)cc32)cc1           no

Ask | Outcome? "Cc1csc(NC(=O)CSc2nc3[nH]c(=O)cc(O)c3s2)n1"
Reply | yes

Ask | Outcome? "Cc1ccccc1Cn1nnc2c1C(=O)c1ccccc1C2=O"
Reply | yes

Ask | Outcome? "COc1ccc(-n2nc([N+](=O)[O-])c(=NCCc3cccc(C)c3)n2O)cc1"
Reply | yes

Ask | Outcome? "Cc1ccc(CCNC(=O)CN2C(=O)COc3ccc(S(=O)(=O)N4CCOCC4)cc32)cc1"
Reply | no

Ask | Outcome? "Cc1cccc(CCN=c2c([N+](=O)[O-])nn(-c3ccccc3)n2O)c1"
Reply | yes

Ask | Outcome? O=C(NN1C(=O)c2ccccc2NC1c1ccc([N+](=O)[O-])o1)c1ccccc1 (stereo unspecified)
Reply | yes

Ask | Outcome? "CN(C)C(=O)c1cc([N+](=O)[O-])cc([N+](=O)[O-])c1N(C)C"
Reply | yes

Ask | Outcome? "O=c1c([N+](=O)[O-])cccn1Cc1cccc(Cl)c1"
Reply | yes

Ask | Outcome? "COc1ccc(S(=O)(=O)Nc2c(O)c3ccccc3oc2=O)cc1"
Reply | no

Data origin, for the record: PubChem BioAssay AID588397
